For each of the compounds below, state its combination Emax.
system: SNU-C5 (Colorectal Carcinoma); experiment: combination Emax (second highest fraction inhibited in the dose matrix, 72 h); higher = more inhibition; extreme values may be limits of the assay
Number, no unit, nothing else.

Challenge: Give the measured combination Emax for CN(CCO)CC[C@H](CSc1ccccc1)Nc1ccc(S(=O)(=O)NC(=O)c2ccc(N3CCC([C@@H](O)c4ccccc4-c4ccc(Cl)cc4)CC3)cc2)cc1S(=O)(=O)C(F)(F)F [AZD4320] + CN(C)CCCOc1ccc(-c2ccc3ncc4c(c3c2)n(C2CCOCC2)c(=O)n4C)cn1 [AZD0156] (first compound max 1 µM, 7x7, partner max 1 µM)
Response given: 0.225

Challenge: State, in one line, measured combination Emax of NC1(C(=O)N[C@@H](CCO)c2ccc(Cl)cc2)CCN(c2ncnc3[nH]ccc23)CC1 [Capivasertib] + CC(C)n1c(=O)n(C)c2cnc3cc(F)c(-c4ccc(OCCCN5CCCCC5)nc4)cc3c21 [AZD1390] (first compound max 10 µM, 7x7, partner max 0.3 µM)
Response given: 0.416

Challenge: Please supply the value of reported combination Emax for the item CN(C)CCCOc1ccc(-c2ccc3ncc4c(c3c2)n(C2CCOCC2)c(=O)n4C)cn1 [AZD0156] + C=CCn1c(=O)c2cnc(Nc3ccc(N4CCN(C)CC4)cc3)nc2n1-c1cccc(C(C)(C)O)n1 [AZD1775] (first compound max 1 µM, partner max 1 µM)
Response given: 0.583

Challenge: Recall and state the measured combination Emax for Cc1cc2ncnn2cc1Nc1ncc2c(n1)n(C1CCOCC1)c(=O)n2C [AZD7648] + C[C@@H]1COCCN1C2=NC(=NC(=C2)C3(CC3)[S@](=N)(=O)C)C4=C5C=CNC5=NC=C4 [AZD6738] (first compound max 10 µM, 7x7, partner max 10 µM) .
Response given: 0.751

* * *

test system: LU-99A (Non-Small Cell Lung Carcinoma); test: Bliss excess, mean over the matrix (fraction); higher = more synergy
Kindly supply the reported Bliss excess values for the records listed here.
Please give only the number in your answer, with no unit.

Challenge: Print LU-99A (Non-Small Cell Lung Carcinoma) Bliss excess for CCN(CCO)CCCOc1ccc2c(Nc3cc(CC(=O)Nc4cccc(F)c4)[nH]n3)ncnc2c1 [AZD2811] + C=CCn1c(=O)c2cnc(Nc3ccc(N4CCN(C)CC4)cc3)nc2n1-c1cccc(C(C)(C)O)n1 [AZD1775] (first compound max 1 µM, partner max 1 µM) .
Response given: -0.0354

Challenge: For LU-99A (Non-Small Cell Lung Carcinoma), give Bliss excess of the listed molecule: CN(CCO)CC[C@H](CSc1ccccc1)Nc1ccc(S(=O)(=O)NC(=O)c2ccc(N3CCC([C@@H](O)c4ccccc4-c4ccc(Cl)cc4)CC3)cc2)cc1S(=O)(=O)C(F)(F)F [AZD4320] + C1CN(CCC1(C(=O)N[C@@H](CCO)C2=CC=C(C=C2)Cl)N)C3=NC=NC4=C3C=CN4 [Capivasertib] (first compound max 1 µM, 7x7, partner max 3 µM)
Response given: -0.0693

Challenge: Write down measured Bliss excess (LU-99A (Non-Small Cell Lung Carcinoma)) for this molecule. CC1(C)CCC(CN2CCN(c3ccc(C(=O)NS(=O)(=O)c4ccc(NCC5CCOCC5)c([N+](=O)[O-])c4)c(Oc4cnc5[nH]ccc5c4)c3)CC2)=C(c2ccc(Cl)cc2)C1 [Venetoclax] + C=CCn1c(=O)c2cnc(Nc3ccc(N4CCN(C)CC4)cc3)nc2n1-c1cccc(C(C)(C)O)n1 [AZD1775] (first compound max 1 µM, partner max 1 µM)
Response given: -0.0533

Challenge: Supply Bliss excess measured with LU-99A (Non-Small Cell Lung Carcinoma) for Cc1cc2ncnn2cc1Nc1ncc2c(n1)n(C1CCOCC1)c(=O)n2C [AZD7648] + C=CCn1c(=O)c2cnc(Nc3ccc(N4CCN(C)CC4)cc3)nc2n1-c1cccc(C(C)(C)O)n1 [AZD1775] (first compound max 10 µM, partner max 1 µM) .
Response given: -0.0262

* * *

So I've got a bunch of compounds here, and I need their Bliss excess values.
tested on: U-266 (Plasma Cell Myeloma); test: Bliss excess, mean over the matrix (fraction); higher = more synergy
Field format: numeric only.

Challenge: Provide only the value of recorded Bliss excess for CC1(C)CCC(CN2CCN(c3ccc(C(=O)NS(=O)(=O)c4ccc(NCC5CCOCC5)c([N+](=O)[O-])c4)c(Oc4cnc5[nH]ccc5c4)c3)CC2)=C(c2ccc(Cl)cc2)C1 [Venetoclax] + C1CN(CCC1(C(=O)N[C@@H](CCO)C2=CC=C(C=C2)Cl)N)C3=NC=NC4=C3C=CN4 [Capivasertib] (first compound max 1 µM, 7x7, partner max 3 µM)
Response given: -0.071

Challenge: Complete the entry with Bliss excess for COc1nnc2ccc(N3CCC(c4ccc(OCCN5CCN(C)C(=O)[C@H]5C)cc4)CC3)nn12 [AZD5153] + Cc1c2c(nn1C)CSCc1cc(n(C)n1)CSc1cc(c3ccccc3c1)OCCCc1c(C(=O)O)n(C)c3c-2c(Cl)ccc13 [AZD5991] (first compound max 1 µM, 7x7, partner max 1 µM)
Response given: -0.106

Challenge: Query Bliss excess for CCc1c2c(nc3ccc(O)cc13)-c1cc3c(c(=O)n1C2)COC(=O)[C@]3(O)CC [SN-38] + CN(C)CCCOc1ccc(-c2ccc3ncc4c(c3c2)n(C2CCOCC2)c(=O)n4C)cn1 [AZD0156] (first compound max 0.3 µM, 7x7, partner max 1 µM)
Response given: -0.0099

* * *

test system: KM-H2 (Hodgkin's Lymphoma); assay: combination Emax (second highest fraction inhibited in the dose matrix, 72 h); higher = more inhibition; extreme values may be limits of the assay
Provide the recorded combination Emax for the entries that follow.
Answer as a number with no unit attached.

Challenge: System KM-H2 (Hodgkin's Lymphoma). Read-out combination Emax. Item CN(CCO)CC[C@H](CSc1ccccc1)Nc1ccc(S(=O)(=O)NC(=O)c2ccc(N3CCC([C@@H](O)c4ccccc4-c4ccc(Cl)cc4)CC3)cc2)cc1S(=O)(=O)C(F)(F)F [AZD4320] + CN(C)CCCOc1ccc(-c2ccc3ncc4c(c3c2)n(C2CCOCC2)c(=O)n4C)cn1 [AZD0156] (first compound max 1 µM, 7x7, partner max 1 µM) . Report value.
Response given: 0.155

Challenge: Give KM-H2 (Hodgkin's Lymphoma) combination Emax for the following molecule: CN(C)CCCOc1ccc(-c2ccc3ncc4c(c3c2)n(C2CCOCC2)c(=O)n4C)cn1 [AZD0156] + O=C(c1cc(Cc2n[nH]c(=O)c3ccccc23)ccc1F)N1CCN(C(=O)C2CC2)CC1 [Olaparib] (first compound max 3 µM, partner max 3 µM)
Response given: 0.401

Challenge: // output combination Emax; input COc1nnc2ccc(N3CCC(c4ccc(OCCN5CCN(C)C(=O)[C@H]5C)cc4)CC3)nn12 [AZD5153] + CN(CC[C@H](CSC1=CC=CC=C1)NC2=C(C=C(C=C2)S(=O)(=O)NC(=O)C3=CC=C(C=C3)N4CCC(CC4)[C@H](C5=CC=CC=C5C6=CC=C(C=C6)Cl)O)S(=O)(=O)C(F)(F)F)CCO [AZD4320] (first compound max 1 µM, 7x7, partner max 1 µM) ; system KM-H2 (Hodgkin's Lymphoma)
Response given: 0.551

* * *

Would you kindly list Bliss excess for each of these compounds?
system: COR-L95 (Small Cell Lung Carcinoma); assay: Bliss excess, mean over the matrix (fraction); higher = more synergy
Keep the answer to the number alone.

Challenge: Provide measured Bliss excess value, entry: CC(=O)c1c(C)c2cnc(Nc3ccc(N4CCNCC4)cn3)nc2n(C2CCCC2)c1=O [Palbociclib] + CC1(C)CCC(CN2CCN(c3ccc(C(=O)NS(=O)(=O)c4ccc(NCC5CCOCC5)c([N+](=O)[O-])c4)c(Oc4cnc5[nH]ccc5c4)c3)CC2)=C(c2ccc(Cl)cc2)C1 [Venetoclax] (first compound max 10 µM, 7x7, partner max 1 µM)
Response given: -0.0581

Challenge: Determine its reported Bliss excess: Cc1c2c(nn1C)CSCc1cc(n(C)n1)CSc1cc(c3ccccc3c1)OCCCc1c(C(=O)O)n(C)c3c-2c(Cl)ccc13 [AZD5991] + CS(=O)(=O)CCNCc1ccc(-c2ccc3ncnc(Nc4ccc(OCc5cccc(F)c5)c(Cl)c4)c3c2)o1 [Lapatinib] (first compound max 1 µM, 7x7, partner max 10 µM)
Response given: -0.0199

Challenge: Report measured Bliss excess; entry is CC(=O)c1c(C)c2cnc(Nc3ccc(N4CCNCC4)cn3)nc2n(C2CCCC2)c1=O [Palbociclib] + Cc1c2c(nn1C)CSCc1cc(n(C)n1)CSc1cc(c3ccccc3c1)OCCCc1c(C(=O)O)n(C)c3c-2c(Cl)ccc13 [AZD5991] (first compound max 10 µM, 7x7, partner max 1 µM)
Response given: -0.0112

* * *

test system: COR-L23 (Non-Small Cell Lung Carcinoma); experiment: Bliss excess, mean over the matrix (fraction); higher = more synergy
measurement name: Bliss excess
API doc: respond with a numeric literal and nothing else, no unit.

Challenge: Tell me Bliss excess of C=CCn1c(=O)c2cnc(Nc3ccc(N4CCN(C)CC4)cc3)nc2n1-c1cccc(C(C)(C)O)n1 [AZD1775] + C[C@@H]1COCCN1C2=NC(=NC(=C2)C3(CC3)[S@](=N)(=O)C)C4=C5C=CNC5=NC=C4 [AZD6738] (first compound max 1 µM, partner max 10 µM) when tested on COR-L23 (Non-Small Cell Lung Carcinoma).
Response given: 0.0462

Challenge: Answer with Bliss excess of Cn1cnc2c(F)c(Nc3ccc(Br)cc3Cl)c(C(=O)NOCCO)cc21 [Selumetinib] + C[C@@H]1COCCN1C2=NC(=NC(=C2)C3(CC3)[S@](=N)(=O)C)C4=C5C=CNC5=NC=C4 [AZD6738] (first compound max 10 µM, 7x7, partner max 10 µM) measured for COR-L23 (Non-Small Cell Lung Carcinoma).
Response given: -0.0148

Challenge: Lab note: COR-L23 (Non-Small Cell Lung Carcinoma) assay, enter Bliss excess for COc1cccc(OCCCN)c1-c1cc(Nc2cnc(C#N)cn2)n[nH]1 [Prexasertib] + CCc1c2c(nc3ccc(O)cc13)-c1cc3c(c(=O)n1C2)COC(=O)[C@]3(O)CC [SN-38] (first compound max 1 µM, 7x7, partner max 0.3 µM) here
Response given: 0.0388

Challenge: # lookup: COR-L23 (Non-Small Cell Lung Carcinoma) Bliss excess, key = C[C@@H](c1ccc2nccn2c1)n1nnc2ncc(-c3cnn(C)c3)nc21 [Savolitinib] + Cc1c2c(nn1C)CSCc1cc(n(C)n1)CSc1cc(c3ccccc3c1)OCCCc1c(C(=O)O)n(C)c3c-2c(Cl)ccc13 [AZD5991] (first compound max 1 µM, 7x7, partner max 1 µM)
Response given: -0.048

Challenge: Send back COR-L23 (Non-Small Cell Lung Carcinoma) Bliss excess of CC1(C)CCC(CN2CCN(c3ccc(C(=O)NS(=O)(=O)c4ccc(NCC5CCOCC5)c([N+](=O)[O-])c4)c(Oc4cnc5[nH]ccc5c4)c3)CC2)=C(c2ccc(Cl)cc2)C1 [Venetoclax] + C[C@@H](Nc1cc(F)cc(F)c1)c1cc(C(=O)N(C)C)cc2c(=O)cc(N3CCOCC3)oc12 [AZD8186] (first compound max 1 µM, 7x7, partner max 3 µM) only.
Response given: -0.0328

Challenge: Specify the recorded Bliss excess for NC1(C(=O)N[C@@H](CCO)c2ccc(Cl)cc2)CCN(c2ncnc3[nH]ccc23)CC1 [Capivasertib] + C[C@@H]1COCCN1C2=NC(=NC(=C2)C3(CC3)[S@](=N)(=O)C)C4=C5C=CNC5=NC=C4 [AZD6738] (first compound max 10 µM, 7x7, partner max 10 µM) , system: COR-L23 (Non-Small Cell Lung Carcinoma).
Response given: -0.0358

Challenge: Return reported Bliss excess for target or system COR-L23 (Non-Small Cell Lung Carcinoma), item Cc1c2c(nn1C)CSCc1cc(n(C)n1)CSc1cc(c3ccccc3c1)OCCCc1c(C(=O)O)n(C)c3c-2c(Cl)ccc13 [AZD5991] + C=CCn1c(=O)c2cnc(Nc3ccc(N4CCN(C)CC4)cc3)nc2n1-c1cccc(C(C)(C)O)n1 [AZD1775] (first compound max 1 µM, partner max 1 µM) .
Response given: -0.0079
